# credit: paper PMC11796359

# stoichiometry N listing for each entry below
Molecular target: the molecule itself
Experiment: SEC; Superose 6 Increase 10/300 GL; 50 mM Tris-HCl (pH 8.0), 300 mM NaCl, 10 mM MgCl2; oligomeric state calculated from elution volumes of proteins of known size
Number only, please.

protein: KpUGP K65R (enzyme, UDP-glucose pyrophosphorylase (galU gene product) of K. pneumoniae DSM 30104; mutant of Strep-KpUGP; tag as in m1; no cleavage described) MAALNSKVRKAVIPVAGLGTRMLPATKAIPKEMLPLVDKPLIQYVVNECIAAGITEIVLVTHSSRNSIENHFDTSFELEAMLEKRVKRQLLEEVQSICPPHVTIMQVRQGLAKGLGHAVLCAHPVVGDEPVAVILPDVILDEYESDLSRDNLAEMISRFDETGASQIMVEPVEDVTAYGVVDCKGESLKPGESVPMVGVVEKPKADVAPSNLAVVGRYVLSADIWPLLAKTPPGAGDEIQLTDAIDMLIEKETVEAYHMKGKSHDCGNKLGYMQAFVEYGIRHKTLGDDFKAWLETAVAK
stoichiometry N: 2.4

## Input Entry KpUGP D38A (enzyme, UDP-glucose pyrophosphorylase (galU gene product) of K. pneumoniae DSM 30104; mutant of Strep-KpUGP; tag as in m1; no cleavage described) MAALNSKVRKAVIPVAGLGTRMLPATKAIPKEMLPLVAKPLIQYVVNECIAAGITEIVLVTHSSKNSIENHFDTSFELEAMLEKRVKRQLLEEVQSICPPHVTIMQVRQGLAKGLGHAVLCAHPVVGDEPVAVILPDVILDEYESDLSRDNLAEMISRFDETGASQIMVEPVEDVTAYGVVDCKGESLKPGESVPMVGVVEKPKADVAPSNLAVVGRYVLSADIWPLLAKTPPGAGDEIQLTDAIDMLIEKETVEAYHMKGKSHDCGNKLGYMQAFVEYGIRHKTLGDDFKAWLETAVAK : reported stoichiometry N = ?
## Output 4.1

## Input Entry KpUGP K27A (enzyme, UDP-glucose pyrophosphorylase (galU gene product) of K. pneumoniae DSM 30104; mutant of Strep-KpUGP; tag as in m1; no cleavage described) MAALNSKVRKAVIPVAGLGTRMLPATAAIPKEMLPLVDKPLIQYVVNECIAAGITEIVLVTHSSKNSIENHFDTSFELEAMLEKRVKRQLLEEVQSICPPHVTIMQVRQGLAKGLGHAVLCAHPVVGDEPVAVILPDVILDEYESDLSRDNLAEMISRFDETGASQIMVEPVEDVTAYGVVDCKGESLKPGESVPMVGVVEKPKADVAPSNLAVVGRYVLSADIWPLLAKTPPGAGDEIQLTDAIDMLIEKETVEAYHMKGKSHDCGNKLGYMQAFVEYGIRHKTLGDDFKAWLETAVAK : reported stoichiometry N = ?
## Output 2.1

## Input Entry KpUGP D38N (enzyme, UDP-glucose pyrophosphorylase (galU gene product) of K. pneumoniae DSM 30104; mutant of Strep-KpUGP; tag as in m1; no cleavage described) MAALNSKVRKAVIPVAGLGTRMLPATKAIPKEMLPLVNKPLIQYVVNECIAAGITEIVLVTHSSKNSIENHFDTSFELEAMLEKRVKRQLLEEVQSICPPHVTIMQVRQGLAKGLGHAVLCAHPVVGDEPVAVILPDVILDEYESDLSRDNLAEMISRFDETGASQIMVEPVEDVTAYGVVDCKGESLKPGESVPMVGVVEKPKADVAPSNLAVVGRYVLSADIWPLLAKTPPGAGDEIQLTDAIDMLIEKETVEAYHMKGKSHDCGNKLGYMQAFVEYGIRHKTLGDDFKAWLETAVAK : reported stoichiometry N = ?
## Output 4.2
